Data origin: paper PMC6377682

B1: human ASPP2^920-1120 [human] / PP1α^301-330 C-tail peptide [human] (parent complex)
chain 1: MRVKFNPLALLLDSSLEGEFDLVQRIIYEVDDPSLPNDEGITALHNAVCAGHTEIVKFLVQFGVNVNAADSDGWTPLHCAASCNNVQVCKFLVESGAAVFAMTYSDMQTAADKCEEMEEGYTQCSQFLYGVQEKMGIMNKGVIYALWDYEPQNDDELPMKEGDCMTIIHREDEDEIEWWWARLNDKEGYVPRNLLGLYPRI
chain 2: KNKGKYGQFSGLNPGGRPITPPRNSAKAKK

Variants of: B1
Test: ITC
parameter: pKd
One number for each entry, as −log10 of the molar value.

Item chain 1 D172G, chain 1 E173P has what recorded pKd?
6.76
